Measured ΔH accompanies every entry in the list below.
TARGET: pVHL19 (VCB complex: VHL with Elongin B and Elongin C) (Homo sapiens)
PROTOCOL NOTES: ITC titration against VCB, short VHL isoform
Type: binding
RUN PARAMETERS: ITC, pVHL19

{"MOLECULE": "Cc1ncsc1-c1ccc(CNC(=O)[C@@H]2C[C@@H](O)CN2C(=O)[C@@H](NC(=O)COCCOCCOCCOCC(=O)N[C@H](C(=O)N2C[C@H](O)C[C@H]2C(=O)NCc2ccc(-c3scnc3C)cc2)C(C)(C)C)C(C)(C)C)cc1 [CM09]", "ΔH": "-28.9 ± 1.3 kJ/mol"}
{"MOLECULE": "CC(=O)N[C@H](C(=O)N1C[C@H](O)C[C@H]1C(=O)NCc1ccc(-c2scnc2C)cc1OCCOCCOCCOCCOCCOCC(=O)N[C@H](C(=O)N1C[C@H](O)C[C@H]1C(=O)NCc1ccc(-c2scnc2C)cc1)C(C)(C)C)C(C)(C)C [CMP112]", "ΔH": "-61.9 ± 0.84 kJ/mol"}
{"MOLECULE": "Cc1ncsc1-c1ccc(CNC(=O)[C@@H]2C[C@@H](O)CN2C(=O)[C@@H](NC(=O)COCCOCCOCCOCCOCC(=O)N[C@H](C(=O)N2C[C@H](O)C[C@H]2C(=O)NCc2ccc(-c3scnc3C)cc2)C(C)(C)C)C(C)(C)C)cc1 [CM10]", "ΔH": "-39.3 ± 0.42 kJ/mol"}

----------
TARGET: pVHL19 (VCB complex: VHL with Elongin B and Elongin C) (Homo sapiens)
PROTOCOL NOTES: ITC titration against VCB, short VHL isoform
Format: binding
RUN PARAMETERS: ITC, pVHL19
Measured ΔG accompanies every entry in the list below.
METRIC: ΔG (kcal/mol)

{"COMPOUND": "CC(=O)N[C@H](C(=O)N1C[C@H](O)C[C@H]1C(=O)NCc1ccc(-c2scnc2C)cc1OCCOCCOCCOCCOCCOCC(=O)N[C@H](C(=O)N1C[C@H](O)C[C@H]1C(=O)NCc1ccc(-c2scnc2C)cc1)C(C)(C)C)C(C)(C)C", "UNIT": "kcal/mol", "ASSAY RESULT": -9.1}
{"COMPOUND": "Cc1ncsc1-c1ccc(CNC(=O)[C@@H]2C[C@@H](O)CN2C(=O)[C@@H](NC(=O)COCCOCCOCCOCCOCCOc2cc(-c3scnc3C)ccc2CNC(=O)[C@@H]2C[C@@H](O)CN2C(=O)[C@@H](NC(=O)C2(C#N)CC2)C(C)(C)C)C(C)(C)C)cc1", "UNIT": "kcal/mol", "ASSAY RESULT": -9.5}
{"COMPOUND": "CC(=O)N[C@H](C(=O)N1C[C@H](O)C[C@H]1C(=O)NCc1ccc(-c2scnc2C)cc1OCCOCCOCCOCCOCCOc1cc(-c2scnc2C)ccc1CNC(=O)[C@@H]1C[C@@H](O)CN1C(=O)[C@@H](NC(C)=O)C(C)(C)C)C(C)(C)C", "UNIT": "kcal/mol", "ASSAY RESULT": -9.5}

----------
TARGET: pVHL19 (VCB complex: VHL with Elongin B and Elongin C) (Homo sapiens, UniProt P40337)
Sequence (P40337 54-213): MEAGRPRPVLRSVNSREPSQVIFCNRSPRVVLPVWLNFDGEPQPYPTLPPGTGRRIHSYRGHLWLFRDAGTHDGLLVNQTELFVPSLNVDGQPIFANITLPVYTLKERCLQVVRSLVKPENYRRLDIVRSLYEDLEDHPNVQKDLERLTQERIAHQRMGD
Sequence (Q15370 1-104 partner limits assumed): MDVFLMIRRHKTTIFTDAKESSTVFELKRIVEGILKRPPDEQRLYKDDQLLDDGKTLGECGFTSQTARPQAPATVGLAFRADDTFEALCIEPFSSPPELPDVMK
Sequence (Q15369 17-112 partner limits assumed): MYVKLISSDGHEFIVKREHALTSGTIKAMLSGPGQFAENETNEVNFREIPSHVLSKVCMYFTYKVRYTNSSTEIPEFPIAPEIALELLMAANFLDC
PROTOCOL NOTES: ITC titration against VCB, short VHL isoform
RUN PARAMETERS: ITC, pVHL19
pKd: −log10 of the molar value.
Measured pKd accompanies every entry in the list below.
METRIC: pKd

{"COMPOUND": "Cc1ncsc1-c1ccc(CNC(=O)[C@@H]2C[C@@H](O)CN2C(=O)[C@@H](NC(=O)COCCOCCOCCOCC(=O)N[C@H](C(=O)N2C[C@H](O)C[C@H]2C(=O)NCc2ccc(-c3scnc3C)cc2)C(C)(C)C)C(C)(C)C)cc1", "TARGET": "pVHL19 (VCB complex: VHL with Elongin B and Elongin C) (Homo sapiens, UniProt P40337)", "ASSAY RESULT": 7.39}
{"COMPOUND": "CC(=O)N[C@H](C(=O)N1C[C@H](O)C[C@H]1C(=O)NCc1ccc(-c2scnc2C)cc1OCCOCCOCCOCCOCCOCC(=O)N[C@H](C(=O)N1C[C@H](O)C[C@H]1C(=O)NCc1ccc(-c2scnc2C)cc1)C(C)(C)C)C(C)(C)C", "TARGET": "pVHL19 (VCB complex: VHL with Elongin B and Elongin C) (Homo sapiens, UniProt P40337)", "ASSAY RESULT": 6.63}
{"COMPOUND": "Cc1ncsc1-c1ccc(CNC(=O)[C@@H]2C[C@@H](O)CN2C(=O)[C@@H](NC(=O)COCCOCCOCCOCCOCC(=O)N[C@H](C(=O)N2C[C@H](O)C[C@H]2C(=O)NCc2ccc(-c3scnc3C)cc2)C(C)(C)C)C(C)(C)C)cc1", "TARGET": "pVHL19 (VCB complex: VHL with Elongin B and Elongin C) (Homo sapiens, UniProt P40337)", "ASSAY RESULT": 7.49}
{"COMPOUND": "Cc1ncsc1-c1ccc(CNC(=O)[C@@H]2C[C@@H](O)CN2C(=O)[C@@H](NC(=O)COCCOCCOCCOCCOCCOCC(=O)N[C@H](C(=O)N2C[C@H](O)C[C@H]2C(=O)NCc2ccc(-c3scnc3C)cc2)C(C)(C)C)C(C)(C)C)cc1", "TARGET": "pVHL19 (VCB complex: VHL with Elongin B and Elongin C) (Homo sapiens, UniProt P40337)", "ASSAY RESULT": 7.96}
{"COMPOUND": "Cc1ncsc1-c1ccc(CNC(=O)[C@@H]2C[C@@H](O)CN2C(=O)[C@@H](NC(=O)COCCOCCOCCOCCOCCOc2cc(-c3scnc3C)ccc2CNC(=O)[C@@H]2C[C@@H](O)CN2C(=O)[C@@H](NC(=O)C2(C#N)CC2)C(C)(C)C)C(C)(C)C)cc1", "TARGET": "pVHL19 (VCB complex: VHL with Elongin B and Elongin C) (Homo sapiens, UniProt P40337)", "ASSAY RESULT": 6.93}
{"COMPOUND": "Cc1ncsc1-c1ccc(CNC(=O)[C@H]2C[C@@H](O)CN2C(=O)[C@H](NC(=O)COCCOCCOCCOCCOCC(=O)N[C@H](C(=O)N2C[C@H](O)C[C@H]2C(=O)NCc2ccc(-c3scnc3C)cc2)C(C)(C)C)C(C)(C)C)cc1", "TARGET": "pVHL19 (VCB complex: VHL with Elongin B and Elongin C) (Homo sapiens, UniProt P40337)", "ASSAY RESULT": 6.84}
{"COMPOUND": "CC(=O)N[C@H](C(=O)N1C[C@H](O)C[C@H]1C(=O)NCc1ccc(-c2scnc2C)cc1OCCOCCOCCOCCOCCOc1cc(-c2scnc2C)ccc1CNC(=O)[C@@H]1C[C@@H](O)CN1C(=O)[C@@H](NC(C)=O)C(C)(C)C)C(C)(C)C", "TARGET": "pVHL19 (VCB complex: VHL with Elongin B and Elongin C) (Homo sapiens, UniProt P40337)", "ASSAY RESULT": 6.95}
